Test system: Escherichia coli (NCTC10418)
protocol: MIC/MBC broth-dilution assay
Assay type: cell-based
test.settings: E. coli NCTC10418, MHB pH 7.4, 512 to 1 µM twofold, 1% DMSO
No end group written: not given here.
assay.endpoint: MBC

Examples with their reported MBC follow.
substance: FLSLIPKIISAISALIKHF-NH2 [PSPHa5]
MBC: > 512 µM
--
substance: FLSLIPKAISAVSALANHF-NH2 [PSPHa1]
MBC: 128 µM
--
substance: FLSLIPKIISAISALINHF-NH2 [PSPHa4]
MBC: > 512 µM
--
substance: FLSLIPAAISAVSALANHF-NH2 [PSPHa, Phylloseptin-PHa]
MBC: > 512 µM
--
substance: FLSLIPKAISAISALINHF-NH2 [PSPHa3]
MBC: > 512 µM

# next substance below
For FLSLIPKAISAISALANHF-NH2 [PSPHa2] the substance record lists MBC as 128 µM

---

Test system: Staphylococcus aureus (NCTC10788)
protocol: MIC/MBC broth-dilution assay
Type: cell-based
test.settings: S. aureus NCTC10788, MHB pH 7.4, 512 to 1 µM twofold, 1% DMSO
No end group written: not given here.
assay.endpoint: MIC

substance: FLSLIPKAISAISALANHF-NH2 [PSPHa2]
target.desc: Staphylococcus aureus (NCTC10788)
MIC: 4 µM

substance: FLSLIPAAISAVSALANHF-NH2 [PSPHa, Phylloseptin-PHa]
target.desc: Staphylococcus aureus (NCTC10788)
MIC: 8 µM

substance: FLSLIPKIISAISALINHF-NH2 [PSPHa4]
target.desc: Staphylococcus aureus (NCTC10788)
MIC: 2 µM

For each of the substances below, state MIC.
1. FLSLIPKAISAISALINHF-NH2 [PSPHa3]
2. FLSLIPKAISAVSALANHF-NH2 [PSPHa1]
3. FLSLIPKIISAISALIKHF-NH2 [PSPHa5]

1. 2 µM
2. 8 µM
3. 2 µM

---

Exercise: for every item that follows, state its recorded MIC.
System: Enterococcus faecalis (NCTC12697)
protocol: MIC/MBC broth-dilution assay
Assay type: cell-based
test.settings: E. faecalis NCTC12697, MHB pH 7.4, 512 to 1 µM twofold, 1% DMSO
No end group written: not given here.
One number for each entry, in µM.

substance: FLSLIPKAISAISALINHF-NH2 [PSPHa3]
val: 32
//
substance: FLSLIPKAISAISALANHF-NH2 [PSPHa2]
val: 64
//
substance: FLSLIPKIISAISALINHF-NH2 [PSPHa4]
val: 32
//
substance: FLSLIPKIISAISALIKHF-NH2 [PSPHa5]
val: 16

# next substance below
For FLSLIPKAISAVSALANHF-NH2 [PSPHa1] the substance record lists MIC as 32

---

Test system: U251MG cells
protocol: MTT assay
Assay type: cell-based, human
test.settings: peptides in serum-free medium
No end group written: not given here.
Exercise: for every item that follows, state its recorded LD50 of MTT assays.
Give bare numbers, in µM.

substance: FLSLIPAAISAVSALANHF-NH2 [PSPHa, Phylloseptin-PHa]
val: 34.67

substance: FLSLIPKIISAISALIKHF-NH2 [PSPHa5]
val: 4.059

substance: FLSLIPKAISAISALINHF-NH2 [PSPHa3]
val: 10.85

substance: FLSLIPKAISAVSALANHF-NH2 [PSPHa1]
val: 33.65

substance: FLSLIPKAISAISALANHF-NH2 [PSPHa2]
val: 36.46

# next substance below
For FLSLIPKIISAISALINHF-NH2 [PSPHa4] the substance record lists LD50 of MTT assays as 9.547

---

Tested on: MCF-7 cells
protocol: MTT assay
Assay type: cell-based, human
test.settings: peptides in serum-free medium
No end group written: not given here.
assay.endpoint: LD50 of MTT assays (µM)
Answers are plain numbers, in µM.

Examples with their reported LD50 of MTT assays follow.
substance: FLSLIPAAISAVSALANHF-NH2 [PSPHa, Phylloseptin-PHa]
LD50 of MTT assays / µM: 24.05
--
substance: FLSLIPKIISAISALIKHF-NH2 [PSPHa5]
LD50 of MTT assays / µM: 3.753
--
substance: FLSLIPKAISAISALANHF-NH2 [PSPHa2]
LD50 of MTT assays / µM: 26.49
--
substance: FLSLIPKAISAVSALANHF-NH2 [PSPHa1]
LD50 of MTT assays / µM: 45.69

For each of the substances below, state LD50 of MTT assays.
1. FLSLIPKAISAISALINHF-NH2 [PSPHa3]
2. FLSLIPKIISAISALINHF-NH2 [PSPHa4]

1: 10.48; 2: 15.01

---

Test system: HCT116 cells
protocol: MTT assay
Assay type: cell-based, human
test.settings: peptides in serum-free medium
No end group written: not given here.
assay.endpoint: LD50 of MTT assays (µM)
Answers are plain numbers, in µM.

substance: FLSLIPKIISAISALINHF-NH2 [PSPHa4]
readout.units: µM
val: 6.779

For each of the substances below, state LD50 of MTT assays.
1. FLSLIPKIISAISALIKHF-NH2 [PSPHa5]
2. FLSLIPKAISAVSALANHF-NH2 [PSPHa1]
3. FLSLIPKAISAISALANHF-NH2 [PSPHa2]
4. FLSLIPAAISAVSALANHF-NH2 [PSPHa, Phylloseptin-PHa]
5. FLSLIPKAISAISALINHF-NH2 [PSPHa3]

[4.421, 35.16, 37.4, 36.64, 11.71]

---

Exercise: for every item that follows, state its recorded MBC.
System: Staphylococcus aureus (NCTC10788)
protocol: MIC/MBC broth-dilution assay
Type: cell-based
test.settings: S. aureus NCTC10788, MHB pH 7.4, 512 to 1 µM twofold, 1% DMSO
No end group written: not given here.
Give bare numbers, in µM.

Examples with their reported MBC follow.
substance: FLSLIPKAISAVSALANHF-NH2 [PSPHa1]
MBC / µM: 8
//
substance: FLSLIPAAISAVSALANHF-NH2 [PSPHa, Phylloseptin-PHa]
MBC / µM: 16
//
substance: FLSLIPKIISAISALINHF-NH2 [PSPHa4]
MBC / µM: 2
//
substance: FLSLIPKAISAISALINHF-NH2 [PSPHa3]
MBC / µM: 2
//
substance: FLSLIPKAISAISALANHF-NH2 [PSPHa2]
MBC / µM: 4

# next substance below
For FLSLIPKIISAISALIKHF-NH2 [PSPHa5] the substance record lists MBC as 2

---

Tested on: methicillin-resistant S. aureus (MRSA) (NCTC12493)
protocol: MIC/MBC broth-dilution assay
Type: cell-based, Staphylococcus aureus
test.settings: MHB pH 7.4, 512 to 1 µM twofold, 1% DMSO
No end group written: not given here.
assay.endpoint: MBC (µM)
Answers are plain numbers, in µM.

Examples with their reported MBC follow.
substance: FLSLIPKAISAISALINHF-NH2 [PSPHa3]
readout.units: µM
MBC: 32
//
substance: FLSLIPKAISAISALANHF-NH2 [PSPHa2]
readout.units: µM
MBC: 32
//
substance: FLSLIPKIISAISALIKHF-NH2 [PSPHa5]
readout.units: µM
MBC: 128
//
substance: FLSLIPAAISAVSALANHF-NH2 [PSPHa, Phylloseptin-PHa]
readout.units: µM
MBC: 128
//
substance: FLSLIPKAISAVSALANHF-NH2 [PSPHa1]
readout.units: µM
MBC: 32

For FLSLIPKIISAISALINHF-NH2 [PSPHa4] the substance record lists MBC as 256

---

Test system: NCI-H157 cells
protocol: MTT assay
Format: cell-based, human
test.settings: peptides in serum-free medium
No end group written: not given here.
assay.endpoint: LD50 of MTT assays (µM)
Numbers only, in µM.

substance: FLSLIPKIISAISALINHF-NH2 [PSPHa4]
readout.units: µM
LD50 of MTT assays: 2.265
//
substance: FLSLIPKAISAISALINHF-NH2 [PSPHa3]
readout.units: µM
LD50 of MTT assays: 2.865
//
substance: FLSLIPAAISAVSALANHF-NH2 [PSPHa, Phylloseptin-PHa]
readout.units: µM
LD50 of MTT assays: 37.61
//
substance: FLSLIPKAISAVSALANHF-NH2 [PSPHa1]
readout.units: µM
LD50 of MTT assays: 41.73
//
substance: FLSLIPKIISAISALIKHF-NH2 [PSPHa5]
readout.units: µM
LD50 of MTT assays: 3.614

# next substance below
For FLSLIPKAISAISALANHF-NH2 [PSPHa2] the substance record lists LD50 of MTT assays as 35.34
